Each record here notes measured growth.
tested on: RXF 393 renal; test: NCI-60 one-dose screen, 48 h (100 = growth as untreated, 0 = no growth, -100 = all killed); settings: 10 µM unless noted
This is part of a sample that, as a whole, favours compounds with a hit. Of some 83,000 tested, about 20% had one in any assay.

>  <Smiles repr>
O=C(CSc1nc(-c2ccccc2)cn1-c1ccc(Cl)cc1)c1ccc([N+](=O)[O-])cc1

>  <growth (%)>
71.2

$$$$
>  <Smiles repr>
CCCCCCCCNC(=O)[C@@H](N)CSCOC(C)=O

>  <growth (%)>
124

$$$$
>  <Smiles repr>
COc1ccc(CNc2ccc3nc(CCC4CCCCC4)[nH]c3c2)cc1

>  <growth (%)>
74.2

$$$$
>  <Smiles repr>
C#CC#CC#CC#CC#CC#CC#CC#CC[C@@H]1OC[C@H](COC(=O)O[C@@H](C(=O)O[C@H]2C[C@@]3(O)[C@@H](OC(=O)c4ccccc4)[C@@H]4[C@]5(OC(C)=O)CO[C@@H]5C[C@H](O)[C@@]4(C)C(=O)[C@H](OC(C)=O)C(=C2C)C3(C)C)[C@@H](NC(=O)c2ccccc2)c2ccccc2)O1

>  <growth (%)>
22.7

$$$$
>  <Smiles repr>
Cc1ccc2c(n1)C[C@H](C(C)(C)O)CC[C@H]2C

>  <growth (%)>
114

$$$$
>  <Smiles repr>
COc1cc(CNC(=O)CCCC/C=C/C(C)C)ccc1OCc1cn(-c2ccc(C(F)(F)F)cc2)nn1

>  <growth (%)>
65.6

$$$$
>  <Smiles repr>
Nc1ccc(N)c2c1C(=O)c1cccc([N+](=O)[O-])c1C2=O

>  <growth (%)>
45.7

$$$$
>  <Smiles repr>
N#C/C(Sc1nc2sc3c(c2c(=O)n1Cc1ccccc1)CCCC3)=C1/SC=C(c2ccc(Cl)cc2)N1c1ccccc1

>  <growth (%)>
90.9

$$$$
>  <Smiles repr>
O=C(Nc1ccccc1CNc1nc(Nc2ccc(OCCN3CCCC3)cc2)ncc1Cl)NC1CCCCC1

>  <growth (%)>
56.8

$$$$

====

system: SF-268 CNS; assay: NCI-60 one-dose screen, 48 h; conditions: 10 µM unless noted
The panel holds about 83,000 compounds, 20% with a hit somewhere; the sample as a whole holds those more often. The source made the active and inactive calls. The calls were made as follows: active = growth percent below 10; inactive = the rest.
Outcome codes: true (1) for active, false (0) for inactive

>  <Smiles repr>
CC1(C)CCC[C@]23C(=O)O[C@](O)(C(=O)C4=C[C@@](C)(/C=C/CCCc5ccc6ccc7cccc8ccc5c6c78)CC[C@@]42O)[C@@H]13

>  <Class label>
true (1)

$$$$
>  <Smiles repr>
C#Cc1cccc(Nc2nc(Cl)nc3cc(NC(=O)CCl)ccc23)c1

>  <Class label>
true (1)

$$$$
>  <Smiles repr>
COc1cc2nc3cc([N+](=O)[O-])ccc3c(NCCCNCCO)c2cc1OC

>  <Class label>
true (1)

$$$$
>  <Smiles repr>
O=C(Nc1cccc(Cn2c(=O)[nH]c3ccc(Oc4ncccn4)cc3c2=O)c1)c1cccc(Cl)c1

>  <Class label>
false (0)

$$$$
>  <Smiles repr>
CN(C)CCCN(CCC1CCCCC1)CCC1CCCCC1

>  <Class label>
false (0)

$$$$

====

tested on: A549/ATCC NSCLC; experiment: NCI-60 one-dose screen, 48 h (100 = growth as untreated, 0 = no growth, -100 = all killed); details: 10 µM unless noted
This is part of a sample that, as a whole, favours compounds with a hit. Of some 83,000 tested, about 20% had one in any assay.

>  <Molecule>
COc1ccc(C2=C/C(=C\c3ccccc3O)C(=O)N2Cc2ccccc2)cc1

>  <growth, %>
74

$$$$
>  <Molecule>
CNC(=O)c1cc(Oc2ccc3nc(NC(=O)Nc4ccc(F)cc4F)sc3c2)ccn1

>  <growth, %>
44.8

$$$$
>  <Molecule>
CCOc1ccc(-c2cc(C3(S(=O)(=O)c4ccc(C)cc4)CC=CC3)on2)cc1

>  <growth, %>
92.8

$$$$
>  <Molecule>
CN1C(=O)N(C)C2C1NN=c1s/c(=C\c3ccccc3F)c(=O)n12 (centres undefined)

>  <growth, %>
21

$$$$
>  <Molecule>
COC(=O)c1cc(-c2ccc(OC)c(OC)c2)[nH]c1N/N=C/c1c(Cl)cccc1Cl

>  <growth, %>
43

$$$$
>  <Molecule>
CC(=O)OCC(=O)O[C@@H]1C[C@]2(C(C)C)O[C@@]1(C)[C@@H]1CC[C@@H](C)[C@H]1[C@@H]2OC(=O)/C=C/c1ccccc1

>  <growth, %>
71.7

$$$$
>  <Molecule>
O=CN1N=C(c2cccc(Nc3ccncc3)c2)CC1c1ccc2c(c1)OCO2 (centres undefined)

>  <growth, %>
83.8

$$$$
>  <Molecule>
CCCc1cc(CCC)n2nc(N)nc2n1

>  <growth, %>
112

$$$$
>  <Molecule>
CCC(C)C(N)C(=O)NC(CC(C)C)C(=O)N1CCCC1C(=O)NC(Cc1c[nH]c2ccccc12)C(=O)NC(CCCCN)C(=O)NC(Cc1c[nH]c2ccccc12)C(=O)N1CCCC1C(=O)NC(Cc1c[nH]c2ccccc12)C(=O)NC(Cc1c[nH]c2ccccc12)C(=O)N1CCCC1C(=O)NC(Cc1c[nH]c2ccccc12)C(=O)NC(CCCNC(=N)N)C(=O)NC(CCCNC(=N)N)C(N)=O (centres undefined)

>  <growth, %>
106

$$$$
>  <Molecule>
O=C(CN1C(=O)c2ccccc2S1(=O)=O)Nc1nc(-c2cc3ccccc3oc2=O)cs1

>  <growth, %>
104

$$$$
>  <Molecule>
O=C1N/C(=N/N=C(c2ccccc2)c2ccccc2)S/C1=C\c1ccc(Br)cc1

>  <growth, %>
74.7

$$$$
>  <Molecule>
O=C(/C=C/c1ccco1)c1ccc(Nc2ccnc3cc(Cl)ccc23)cc1

>  <growth, %>
62

$$$$
>  <Molecule>
Cc1ccc(S(=O)(=O)c2nc(-c3ccccc3)oc2S(C)=O)cc1 (centres undefined)

>  <growth, %>
69.8

$$$$
>  <Molecule>
CCCN1C(=O)N(CCC)C2C1NC(=S)N2/N=C/C=C/c1ccccc1OC (centres undefined)

>  <growth, %>
13.1

$$$$
>  <Molecule>
C#Cc1cccc(Nc2ncnc3ccc(-c4cnc(Cl)c(NS(C)(=O)=O)c4)cc23)c1

>  <growth, %>
-28.5

$$$$
>  <Molecule>
CN(C)c1ccc(/C=N/NC(=O)CSc2nc3sc4c(c3c(=O)n2-c2ccccc2)CCCCC4)cc1

>  <growth, %>
6.63

$$$$
>  <Molecule>
Cc1oc2ccc(O)c(CN3CCCCCC3)c2c1C(=O)Nc1ccc(C(F)(F)F)cc1

>  <growth, %>
61.2

$$$$
>  <Molecule>
COc1cc(OC)cc(C(=O)Nc2cnc(Nc3ccc(N4CCOCC4)nc3)nc2Oc2ccc(C(F)(F)F)cc2)c1

>  <growth, %>
35.4

$$$$
>  <Molecule>
COc1ccc(C2CC(=O)Oc3c(OC)c4c(c(OC)c32)OCO4)cc1 (centres undefined)

>  <growth, %>
97.6

$$$$
